- System: OVCAR-5 ovarian
- procedureText: NCI tumour cell line growth inhibition, 48 h
Collected TGI values appear next to each entry.

Worked set:
query: # input compound: COC(=O)N[C@H]1CCc2c(Br)c(OC)c(OC)c(OC)c2-c2ccc(SC)c(=O)cc21 ; wanted: its TGI
result: > 39.6 µM

query: # input compound: CCOC(=O)c1ccc(NC(=O)N2CC(C)OC(C)C2)cc1 (stereo not drawn) ; wanted: its TGI
result: > 100 µM

query: # input compound: COc1cc([C@H]2c3cc4c(cc3O[C@@]3(O)COC(=O)[C@@H]23)OCO4)cc(OC)c1OC ; wanted: its TGI
result: > 100 µM

query: # input compound: CC(C)(CO)CNc1cc(=O)[nH]c(N)n1 ; wanted: its TGI
result: > 100 µM

Proceed to the following item.
query: # input compound: CN(C)C(=S)N/N=C\C=N/NC(=S)N(C)C ; wanted: its TGI
result: > 100 µM

###

- System: MDA-MB-231 breast
- procedureText: NCI tumour cell line growth inhibition, 48 h
assayReadout: TGI

Worked set:
query: # input compound: N#Cc1cn(C2OC(CO)C(O)C2O)c2ncnc(N)c12 (stereo not given) ; wanted: its TGI
result: > 100 µM

query: # input compound: Oc1ccc(Cl)cc1C1=N/C(=N\CN2CCN(C/N=C3/N=C(c4cc(Cl)ccc4O)CC(c4ccccc4)N3)CC2)NC(c2ccccc2)C1 (stereo not given) ; wanted: its TGI
result: > 100 µM

query: # input compound: CC1=NOC2(C1)/C(=N/O)CCC/C2=N\O (stereo not given) ; wanted: its TGI
result: > 100 µM

query: # input compound: O=c1[nH]nc(Cc2ccccc2)n1/N=C/c1c[nH]c2ccccc12 ; wanted: its TGI
result: > 100 µM

Proceed to the following item.
query: # input compound: Cc1c(C)c(C)c(-n2[nH]c(=O)n(C)c2=O)c(C)c1C ; wanted: its TGI
result: > 100 µM

###

- Test system: SF-539 CNS
- procedureText: NCI tumour cell line growth inhibition, 48 h
assayReadout: TGI

query: # input molecule: CNC(P(=O)([O-])[O-])P(=O)([O-])[O-].N.N.[Pt+2] ; wanted: its TGI
result: > 100 µM

query: # input molecule: COc1ccc(-c2nc3sc(C)cn3c2/C=C/C(=O)c2cc(OC)c(OC)c(OC)c2)cc1 ; wanted: its TGI
result: > 100 µM

query: # input molecule: Nc1ccn(CCOC(=O)c2ccccc2)c(=O)n1 ; wanted: its TGI
result: > 100 µM

query: # input molecule: Cc1ccc2c(=O)cc(-c3csc4ccccc34)[nH]c2n1 ; wanted: its TGI
result: < 0.0133 µM

query: # input molecule: Nn1c(-c2ccccc2)nc2ccc(Br)cc2c1=O ; wanted: its TGI
result: > 100 µM

query: # input molecule: CC(=O)n1c(COS(C)(=O)=O)nc2ccccc21 ; wanted: its TGI
result: > 100 µM

query: # input molecule: CC1=C(C(=O)Nc2ccccc2C)C(c2ccccc2)C(C(=O)Nc2ccccc2C)=C(C)N1 ; wanted: its TGI
result: > 100 µM

query: # input molecule: CCOc1cc2ncc(C#N)c(Nc3ccc(OCc4cccc(F)c4)c(Cl)c3)c2cc1NC(=O)CC1CCSS1 (stereo not drawn) ; wanted: its TGI
result: > 25 µM

query: # input molecule: CSc1nc(NC2CCCC2)c2cc[nH]c2n1 ; wanted: its TGI
result: > 100 µM

query: # input molecule: COc1cc(-c2nn(-c3ccc(NC(=O)c4ccc(Cl)c(Cl)c4)cc3)cc2-c2ccncc2)ccc1Cl ; wanted: its TGI
result: > 100 µM

query: # input molecule: O=C1C(=O)N(C(=O)c2ccc(Cl)c(Cl)c2)c2ccccc21 ; wanted: its TGI
result: > 100 µM

query: # input molecule: O=C(c1ccccc1)C(C(=O)c1ccccc1)C1(O)C(=O)c2ccccc2C1=O ; wanted: its TGI
result: > 100 µM

query: # input molecule: COc1cc(CCc2ccc(OCCN(C)C)cc2)cc(OC)c1OC ; wanted: its TGI
result: > 100 µM

###

Collected TGI values appear next to each entry.
- Test system: EKVX NSCLC
- procedureText: NCI tumour cell line growth inhibition, 48 h

Worked set:
query: # input compound: Cc1nc2ccc(S(=O)(=O)Nc3ccc(Cl)cc3)cc2c(=O)n1NC(=O)CNc1ccc(Cl)cc1 ; wanted: its TGI
result: > 100 µM

query: # input compound: Cc1ccc(N=Nc2c(C)nn(C(=O)CC(=O)Nc3ccccc3)c2C)cc1C ; wanted: its TGI
result: > 100 µM

query: # input compound: CC1=C(C(=O)Nc2c(C)cccc2C)C(c2ccc3c(c2)OCO3)C(C(=O)Nc2c(C)cccc2C)=C(C)N1 ; wanted: its TGI
result: 53.3 µM

***
query: # input compound: CCOC(=O)/C(O)=C1\C(=O)N(C)C(=O)C1c1ccc(OC)c(OC)c1 (stereo unspecified) ; wanted: its TGI
result: > 100 µM

query: # input compound: COc1ccc2c(c1)[nH]c(=O)c1c3cc(C)c(C)cc3cn21 ; wanted: its TGI
result: 4.67 µM

query: # input compound: COc1ccc(-c2nc3sc(C)cn3c2/C=C/C(=O)c2cc(OC)c(OC)c(OC)c2)cc1 ; wanted: its TGI
result: > 100 µM

###

Collected TGI values appear next to each entry.
- Tested on: SF-295 CNS
- procedureText: NCI tumour cell line growth inhibition, 48 h

Worked set:
query: # input molecule: COc1ccc2c(c1)OC(c1cccnc1)C(c1ccccc1)C2=O (stereo unspecified) ; wanted: its TGI
result: > 100 µM

query: # input molecule: O=C(CN1CCN(c2ncccn2)CC1)Nc1ccc(Cl)cc1C(=O)c1ccccc1Cl ; wanted: its TGI
result: > 100 µM

query: # input molecule: O=C(NCCN(CCNC(=O)c1cccc(=O)n1O)CCN(CCNC(=O)c1cccc(=O)n1O)CCNC(=O)c1cccc(=O)n1O)c1cccc(=O)n1O ; wanted: its TGI
result: > 100 µM

query: # input molecule: CCOC(=O)c1ccc(NC(=O)N2CC(C)OC(C)C2)cc1 (stereo unspecified) ; wanted: its TGI
result: > 100 µM

query: # input molecule: CN(C)C(=S)N/N=C\C=N/NC(=S)N(C)C ; wanted: its TGI
result: > 32.1 µM

Proceed to the following item.
query: # input molecule: C=CCC(C)C12CCNC(Cc3ccc(O)cc31)C2C (stereo unspecified) ; wanted: its TGI
result: > 100 µM

###

Collected TGI values appear next to each entry.
- Tested on: SW-620 colon
- procedureText: NCI tumour cell line growth inhibition, 48 h

query: # input molecule: Cc1ccc(C)n2c1nc1ccc3ccccc3c12 ; wanted: its TGI
result: > 100 µM

query: # input molecule: COc1ccc(N(C(=O)Nc2ccc(Cl)c(Cl)c2)c2ccccc2)cc1 ; wanted: its TGI
result: > 10 µM

query: # input molecule: COc1cccc(N2C(=O)C3c4[nH]c5ccccc5c4C4c5ccccc5CCC4C3C2=O)c1 (stereo unspecified) ; wanted: its TGI
result: > 10 µM

query: # input molecule: COC(=O)/C=C/c1ccccc1N=[S@](C)(=O)c1ccc(C)cc1 ; wanted: its TGI
result: > 100 µM

query: # input molecule: O=c1c2ccccc2[nH]c(=S)n1-c1ccc(Br)cc1 ; wanted: its TGI
result: > 100 µM

query: # input molecule: O=C(Nc1sccc1S(=O)(=O)c1ccccc1)c1cccnc1 ; wanted: its TGI
result: > 100 µM

***
query: # input molecule: O=C1C(Br)=CC2([N+](=O)[O-])CCNc3c(O)c4c5c(c3C2=C1Br)=NCCC=5C=N4 (stereo unspecified) ; wanted: its TGI
result: 4 µM

query: # input molecule: CCOC(=O)[C@@]1(C)C=C2O[C@@H]3OC4(CCCCC4)O[C@@H]3C2=C2C(O)=CC=C(O)[C@]21C(=O)OC ; wanted: its TGI
result: > 68 µM

query: # input molecule: CC(C)Oc1c(-c2c(OC(C)C)c(=O)c2=O)c(=O)c1=O ; wanted: its TGI
result: > 62 µM

query: # input molecule: CCCCOC(=O)C(=O)C(CCC(=O)c1ccc(C)cc1)C(=O)C=C(C)C (stereo unspecified) ; wanted: its TGI
result: > 100 µM

query: # input molecule: COc1ccc2c3c1OC1CC(O)C=CC31CCN(C)C2 (stereo unspecified) ; wanted: its TGI
result: > 150 µM

query: # input molecule: Cc1ccc(-[n+]2c3cc(N)c(C)cc3nc3cc(C)c(Nc4ccccc4)cc32)cc1 ; wanted: its TGI
result: 1.08 µM

query: # input molecule: CCN(CC)CCOc1nc2ccc(OC)cc2c2c1-c1ccc(OC)cc1C2=O ; wanted: its TGI
result: 1.61 µM

query: # input molecule: COc1ccc2c(c1)/C(=C\c1c(C)nc3sc(C)cn13)C(=O)N2C ; wanted: its TGI
result: 18 µM

query: # input molecule: O=P(O)(CCP(=O)(O)c1ccccc1)c1ccccc1 ; wanted: its TGI
result: > 100 µM

query: # input molecule: C=CC(=O)N1C/C(=C\c2ccc(N(C)C)cc2)C(=O)/C(=C/c2ccc(N(C)C)cc2)C1 ; wanted: its TGI
result: > 100 µM

query: # input molecule: O=C(O)c1c(-c2cccc3ccccc23)sc(-c2cccc3ccccc23)c1C(=O)O ; wanted: its TGI
result: > 100 µM

query: # input molecule: Cc1c(-c2c(C)c3ccccc3n2S(=O)(=O)c2ccccc2)n(S(=O)(=O)c2ccccc2)c2ccccc12 ; wanted: its TGI
result: > 100 µM

query: # input molecule: COc1cc(/C(C#N)=C/c2ccc3c(c2OC)OCO3)cc2c1OCO2 ; wanted: its TGI
result: > 100 µM
